Values were extracted from PubChem BioAssay (NCI).

- Test system: OVCAR-3 ovarian
- Method Notes: NCI tumour cell line growth inhibition, 48 h
Provide the reported TGI of each item.

Some solved entries appear below for comparison.
Molecule | Test System | Readout | Result
Cc1c2ccncc2c(C)c2c1c1cc(CO)ccc1n2C | OVCAR-3 ovarian | TGI | 2.32 µM
CCN(C(=O)CN1CCN(c2cc3c(cc2F)c(=O)c(C(=O)O)cn3CC)CC1)c1nc(-c2ccccc2)cs1 | OVCAR-3 ovarian | TGI | > 100 µM
COc1cc(C(c2cccc3ccccc23)N2C(=O)CCC2C(=O)NCc2ccccc2)cc(OC)c1OC (stereo not given) | OVCAR-3 ovarian | TGI | > 100 µM
NCCC(=O)NC(Cc1cnc[nH]1)C(=O)O (stereo not given) | OVCAR-3 ovarian | TGI | > 100 µM
COc1cc(OC)cc(-c2n/c(=C\c3c(O)[nH]c4ccc(Cl)cc34)cc3c2=Nc2ccccc2-3)c1 | OVCAR-3 ovarian | TGI | 5.22 µM
CSc1nc(C#N)c(N)n1C | OVCAR-3 ovarian | TGI | > 100 µM

Provide the reported TGI of each entry below, same order.
1. Cc1ccc(SC[C@@]2(C(F)F)NC(=O)NC2=O)cc1
2. CC1=C(C(=O)Nc2ccc(F)c(Cl)c2)C(c2ccccc2O)NC(=O)N1 (stereo not given)
3. CCCCc1c2c(nc3c1CCc1cc4cc5c(nc4nc1-3)-c1nc3c(c(CCCC)c1CC5)CCC/C3=C\c1ccccc1)/C(=C/c1ccccc1)CCC2
4. CN(CCc1ccc(Cl)c(Cl)c1)CCN(C)CCN1CCCC1

Response line:
1: > 100 µM; 2: > 100 µM; 3: > 100 µM; 4: 70.4 µM

----------
Provide the reported TGI of each item.
- Tested on: MDA-MB-435
- Method Notes: NCI tumour cell line growth inhibition, 48 h
Numbers only, in µM.

Some solved entries appear below for comparison.
Compound | Quantity Unit | Recorded Number
O=c1c(-c2ccccc2)coc2cc(OC/C(=N/O)c3ccc(F)cc3)ccc12 | µM | 97.7
O=C1CCC2(O)C3Cc4ccc(Oc5nnnn5-c5ccccc5)c5c4C2(CCN3CC2CC2)C1O5 (centres undefined) | µM | 37
N=C(N)SCCCN | µM | 14
COc1nc(OC)nc(-c2cccc(F)c2)n1 | µM | 31
S=C(N/N=C\c1ccccn1)N(Cc1ccccn1)Cc1ccccn1 | µM | 41.8

Provide the reported TGI of each entry below, same order.
1. OC(CCN1CCN(CCOC(c2ccccc2)c2ccccc2)CC1)c1ccc(Br)cc1 (centres undefined)
2. CCN1CCCC(Nc2cc(C)nc(/N=C(/N)Nc3ccc(Cl)c(Cl)c3)n2)C1 (centres undefined)
3. CC/C=C\C/C=C/C=C1/C(=O)C=C[C@@H]1C/C=C\CCCC(=O)OC

Response line:
1: 27; 2: 2.89; 3: 5.08

----------
- System: LOX IMVI melanoma
- Method Notes: NCI tumour cell line growth inhibition, 48 h
Assign classes using reported TGI values and the ranges I: < 4 µM; II: ≥ 4 µM and < 20 µM; III: ≥ 20 µM, please.

Compound | Label Value
C#C[C@H]1CCCCCC1O (stereo partly specified) | III
CC(=O)NNc1nc(C)c(C(=O)/C=C/c2ccc(/C=C/C(=O)c3sc(NNC(C)=O)nc3C)cc2)s1 | III
COc1cc(/C=C/[N+](=O)[O-])cc(OC)c1OC | I

Prompt line: Form field 'band' for "COCCOCOC(C)(C)[C@H](CCOC(C)=O)O[Si](c1ccccc1)(c1ccccc1)C(C)(C)C"
Response line: III

Prompt line: Item: "COC(=O)/C(=C\c1ccco1)P(=O)(OC)OC"
Response line: III

----------
- Tested on: NCI-H226 lung
- Method Notes: NCI tumour cell line growth inhibition, 48 h
Readout: GI50

Molecule | Test System | Result
NNc1c2ccccc2nc2ccccc12 | NCI-H226 lung | 4.26 µM
CN(c1ccc(C#N)c(Cl)c1)C1CCC(NC(=O)c2ccc(N3CCN(C4CN(c5ccc6c(c5)C(=O)N(C5CCC(=O)NC5=O)C6=O)C4)CC3)cc2)CC1 (centres undefined) | NCI-H226 lung | > 100 µM
O=C1/C(=C/c2cccc(Br)c2)COc2ccc(O)c(O)c21 | NCI-H226 lung | 2.4 µM

Please turn your attention to the following entry.
Prompt line: // lookup GI50 for "CCSc1nc(N)c(C#N)c(-c2ccco2)c1C#N"
Response line: 29.9 µM

----------
- Test system: HOP-92 NSCLC
- Method Notes: NCI tumour cell line growth inhibition, 48 h
Readout: TGI

Some solved entries appear below for comparison.
Molecule | TGI
O=C1CSC(c2ccccc2O)N1c1nnc(Cn2ccnc2)o1 (stereo not drawn) | 28.9 µM
O=C1CCC2(O)C3Cc4ccc(Oc5nnnn5-c5ccccc5)c5c4C2(CCN3CC2CC2)C1O5 (stereo not drawn) | > 100 µM

Prompt line: // lookup TGI for C/C=C/[C@H]1O[C@@](O)([C@@H](C)[C@H](O)[C@H](C)[C@H]2OC(=O)/C(OC)=C/C(C)=C/[C@@H](C)[C@@H](O)[C@@H](CC)[C@@H](O)[C@H](C)C/C(C)=C/C=C/[C@@H]2OC)C[C@H](OC2CC(O)C(OC(N)=O)C(C)O2)[C@@H]1C (stereo partly drawn)
Response line: 2.4 µM

----------
- System: SK-MEL-2 melanoma
- Method Notes: NCI tumour cell line growth inhibition, 48 h
Provide the reported GI50 of each item.

Compound | Readout | Result
Cc1cc(NC(=O)c2cnc(N3CCN(CCOCCOCCOCCOCCC(=O)N[C@H](C(=O)N4C[C@H](O)C[C@H]4C(=O)N[C@@H](C)c4ccc(-c5scnc5C)cc4)C(C)(C)C)CC3)cn2)c2ncccc2c1 | GI50 | 3.17 µM
CC(=O)O.CC(=O)O.CC(=O)O.CC(=O)O.[Rh].[Rh] | GI50 | 30.7 µM
O=S(=O)(NC1=NCCN1C(=S)SN1CCn2c1nsc2=S)c1cccc(OC(F)(F)F)c1 | GI50 | 16 µM

Provide the reported GI50 of each entry below, same order.
1. Nc1n[nH]c(N)c1N=Nc1ccc(O)cc1
2. CCN(C(=O)CN1CCN(c2cc3c(cc2F)c(=O)c(C(=O)O)cn3CC)CC1)c1nc(-c2ccccc2)cs1
3. COc1cc(OC)cc(-c2n/c(=C\c3c(O)[nH]c4ccc(Cl)cc34)cc3c2=Nc2ccccc2-3)c1
4. CC1=C(C(=O)Nc2ccc(F)c(Cl)c2)C(c2ccccc2O)NC(=O)N1 (stereo unspecified)
5. CCC[CH2][Sn]([CH2]CCC)([O]C(=O)/C=C/c1ccccc1F)[O]C(=O)/C=C/c1ccccc1F

Response line:
["14.4 µM", "0.248 µM", "20.8 µM", "> 100 µM", "0.324 µM"]

Provide the reported GI50 of each entry below, same order.
1. NNc1c2ccccc2nc2ccccc12
2. COc1ccc2c(c1)C(=O)c1c-2n(CCCN)c(=O)c2cc([N+](=O)[O-])ccc12
3. CC(=O)[CH-]C(=O)Nc1ccccc1.CC(=O)[CH-]C(=O)Nc1ccccc1.CC[O-].CC[O-].[Ti+4]

Response line:
12.5 µM
3.06 µM
> 100 µM

----------
- Tested on: SF-539 CNS
- Method Notes: NCI tumour cell line growth inhibition, 48 h
Provide the reported TGI of each item.

Molecule | Test System | Readout | Result
Cc1cc(S(=O)(=O)Nc2nc3ccccc3n2-c2ccccc2)c(S)cc1Cl | SF-539 CNS | TGI | > 100 µM
CCOP(=O)(OCC)C1(O)CC(n2cc(C)c(=O)[nH]c2=O)OC1CO (stereo not given) | SF-539 CNS | TGI | > 100 µM
COc1cc(/C=C2\Cc3cc(OC)c(OC)cc3C2=O)cc(OC)c1 | SF-539 CNS | TGI | > 42.7 µM

Provide the reported TGI of each entry below, same order.
1. CCOC(=O)C1=C(C)N2C(=NC3=C(CCC/C3=C\c3ccc(Cl)cc3)C2c2ccc(Cl)cc2)S1 (stereo not given)
2. Brc1cccc(-c2cc(-c3ccc4nccnc4c3)[nH]n2)c1

Response line:
> 100 µM
3.28 µM

----------
Provide the reported TGI of each item.
- Tested on: UO-31 renal
- Method Notes: NCI tumour cell line growth inhibition, 48 h

Compound | Test System | Readout | Result
CNC(=S)N/N=C(\C)c1nc2ncccc2[nH]1 | UO-31 renal | TGI | 40.6 µM
CC(C)=Nn1cnc(C(=N)C#N)c1N | UO-31 renal | TGI | > 100 µM
CC1=C(C(=O)Nc2ccc(F)c(Cl)c2)C(c2ccccc2O)NC(=O)N1 (stereo not given) | UO-31 renal | TGI | > 100 µM
COP(=O)(OC)C(NC=O)P(=O)(OC)OC | UO-31 renal | TGI | > 100 µM
Cc1oc2c(c1C(=O)N1CC[C@@H](N)C1)C(=O)c1c(c(O)c3ccccc3c1O)C2=O | UO-31 renal | TGI | 2.44 µM
COC1(C)C(=O)N2C1N(C(=O)OCc1ccccc1)CC2(C)C (stereo not given) | UO-31 renal | TGI | > 100 µM

Provide the reported TGI of each entry below, same order.
1. OC(CCN1CCN(CCOC(c2ccccc2)c2ccccc2)CC1)c1ccc(Br)cc1 (stereo not given)
2. O/N=C1/C2CC3CC1(c1ccccc1)CC(/C3=N/O)/C2=N\O (stereo not given)

Response line:
4.77 µM
> 100 µM

Provide the reported TGI of each entry below, same order.
1. CCOP(=O)(OCC)C1(O)CC(n2cc(C)c(=O)[nH]c2=O)OC1CO (stereo not given)
2. CCOC(=O)c1c(N2CCOCC2)[nH]c(=O)c(C(c2cccs2)c2c(O)c(C(=O)OCC)c(N3CCOCC3)[nH]c2=O)c1O

Response line:
["> 100 µM", "> 100 µM"]
